Let's look at some compounds and their measured pIC50.
- measurement.target: Phosphatidylinositol 4,5-bisphosphate 3-kinase catalytic subunit delta isoform (Homo sapiens, UniProt O00329)
- Sequence (O00329 whole entry, canonical isoform): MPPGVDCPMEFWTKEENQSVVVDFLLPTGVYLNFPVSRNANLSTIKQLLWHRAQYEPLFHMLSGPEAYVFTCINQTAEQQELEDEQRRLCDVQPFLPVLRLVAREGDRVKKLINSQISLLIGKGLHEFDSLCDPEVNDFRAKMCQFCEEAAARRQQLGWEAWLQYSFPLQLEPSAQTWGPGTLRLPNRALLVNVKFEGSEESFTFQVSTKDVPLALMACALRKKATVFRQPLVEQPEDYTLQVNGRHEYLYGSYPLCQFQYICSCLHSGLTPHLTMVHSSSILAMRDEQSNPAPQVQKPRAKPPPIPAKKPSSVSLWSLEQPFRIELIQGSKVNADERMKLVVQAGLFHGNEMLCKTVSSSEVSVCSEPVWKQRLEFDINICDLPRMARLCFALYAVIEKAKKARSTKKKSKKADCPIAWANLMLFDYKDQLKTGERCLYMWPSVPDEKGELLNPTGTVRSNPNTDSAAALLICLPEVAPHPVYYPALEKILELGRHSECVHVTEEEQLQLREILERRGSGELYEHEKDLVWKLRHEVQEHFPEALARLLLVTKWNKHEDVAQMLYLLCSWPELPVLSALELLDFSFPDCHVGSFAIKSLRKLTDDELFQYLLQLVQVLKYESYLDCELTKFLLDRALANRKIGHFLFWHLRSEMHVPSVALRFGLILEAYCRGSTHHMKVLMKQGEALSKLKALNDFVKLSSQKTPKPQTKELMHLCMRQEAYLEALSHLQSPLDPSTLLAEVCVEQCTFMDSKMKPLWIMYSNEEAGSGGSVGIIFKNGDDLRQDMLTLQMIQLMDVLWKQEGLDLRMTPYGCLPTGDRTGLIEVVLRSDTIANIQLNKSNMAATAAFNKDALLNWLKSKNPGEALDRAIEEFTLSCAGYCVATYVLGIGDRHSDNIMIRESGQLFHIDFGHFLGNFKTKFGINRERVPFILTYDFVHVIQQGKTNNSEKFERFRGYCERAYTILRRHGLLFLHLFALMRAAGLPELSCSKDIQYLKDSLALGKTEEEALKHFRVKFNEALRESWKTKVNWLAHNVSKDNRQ
- test.description: Inhibition of human PI3Kdelta using PIP2 as substrate after 1 hr
Kindly note that pIC50 refers to -log10 of the concentration in mol/L and answer with the value alone.

As a guide, the following entries are already answered.
>>> observed("COc1ccc(Cn2c(=O)n(C)c3c4cc(-c5ccc(OC)nc5)ccc4ncc32)cc1")
7.94
>>> observed("COc1ccc(Cn2c(=O)n(C)c3c4cc(-c5cnc6ccccc6c5)ccc4ncc32)cc1")
8.02
>>> observed("COc1ccc(Cn2c(=O)n(C)c3c4cc(-c5cnc(OC)c(NS(C)(=O)=O)c5)ccc4ncc32)cc1")
8.72
>>> observed("COc1ccc(Cn2c(=O)n(C)c3cnc4ccc(-c5cnc(OC)c(NS(C)(=O)=O)c5)cc4c32)cc1")
8.39

Query: Dear colleague, I am looking for the recorded pIC50 of the following compound: "CC(C)c1ccc(Cn2c(=O)n(C)c3c4cc(-c5cnc6ccccc6c5)ccc4ncc32)cc1"
Result: 7.55

Query: Dear colleague, I am looking for the recorded pIC50 of the following compound: "COc1ccc(Cn2c(=O)n(C)c3c4cc(-c5cnc(OC)c(NS(=O)(=O)C(C)C)c5)ccc4ncc32)cc1"
Result: 8.21

Query: Dear colleague, I am looking for the recorded pIC50 of the following compound: "COc1ccc(Cn2c(=O)n(C)c3c4cc(-c5ccccc5)ccc4ncc32)cc1"
Result: 7.53

###

- test.description: Cmax in C57BL/6J mouse at 3 mg/kg, po measured up to 30 hrs by LC-MS/MS analysis
- Assay type: ADME, organism-based
- Design: dose 3 mg/kg, route oral
- reported.conditions: in vivo
Let's look at some compounds and their measured Cmax.
State the answer as a number, implicitly in µg/mL.

>>> observed("Cn1c(=O)n(-c2ccc(C(C)(C)C#N)cc2)c2c3cc(-c4cnc5ccccc5c4)ccc3ncc21 [DACTOLISIB]")
0.274
>>> observed("COc1ccc(Cn2c(=O)n(C)c3c4cc(-c5cnc(OC)c(NS(C)(=O)=O)c5)ccc4ncc32)cc1")
1.28

Note: attention shifts to another entry.
Query: Dear colleague, I am looking for the recorded Cmax of the following compound: "COc1ccc(Cn2c(=O)n(C)c3c4cc(-c5cnc6ccccc6c5)ccc4ncc32)cc1"
Result: 0.128

###

- measurement.target: CYP1A2 (Homo sapiens)
- Sequence (P05177 whole entry): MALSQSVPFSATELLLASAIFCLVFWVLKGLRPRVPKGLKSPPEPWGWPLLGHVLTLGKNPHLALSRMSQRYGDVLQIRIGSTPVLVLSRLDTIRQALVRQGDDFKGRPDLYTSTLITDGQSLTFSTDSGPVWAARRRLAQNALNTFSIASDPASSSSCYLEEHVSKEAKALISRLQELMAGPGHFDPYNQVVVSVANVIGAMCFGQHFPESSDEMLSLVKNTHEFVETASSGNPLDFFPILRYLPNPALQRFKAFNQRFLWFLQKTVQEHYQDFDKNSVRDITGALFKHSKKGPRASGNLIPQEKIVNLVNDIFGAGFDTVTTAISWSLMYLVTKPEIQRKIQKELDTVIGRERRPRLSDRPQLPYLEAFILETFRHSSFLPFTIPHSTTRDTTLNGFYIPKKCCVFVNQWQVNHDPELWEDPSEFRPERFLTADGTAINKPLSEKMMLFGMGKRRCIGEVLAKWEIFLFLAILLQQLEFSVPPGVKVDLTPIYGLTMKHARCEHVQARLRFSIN
- test.description: Inhibition of CYP1A2 in human liver microsomes at 10 uM using testosterone/dextromethorphan as probe substrate measured after 10 mins relative to control
- Format: ADME
endpoint.label: inhibition at 10 min, 10 µM

Query: Record lookup: for CYP1A2 (Homo sapiens), what inhibition at 10 min, 10 µM belongs to "COc1ccc(Cn2c(=O)n(C)c3c4cc(-c5cnc(OC)c(NS(C)(=O)=O)c5)ccc4ncc32)cc1" ?
Result: < 10%

###

- test.description: AUC (0 to infinity) in C57BL/6J mouse 3 mg/kg, po measured up to 30 hrs by LC-MS/MS analysis
- Assay type: ADME, organism-based
- Set-up: dose 3 mg/kg, route oral, time infinity
- reported.conditions: in vivo
endpoint.label: AUC (ng·h/mL)
State the answer as a number, implicitly in ng·h/mL.

>>> observed("COc1ccc(Cn2c(=O)n(C)c3c4cc(-c5cnc(OC)c(NS(C)(=O)=O)c5)ccc4ncc32)cc1")
3830

Query: Dear colleague, I am looking for the recorded AUC of the following compound: "COc1ccc(Cn2c(=O)n(C)c3c4cc(-c5cnc6ccccc6c5)ccc4ncc32)cc1"
Result: 329

Query: Dear colleague, I am looking for the recorded AUC of the following compound: "Cn1c(=O)n(-c2ccc(C(C)(C)C#N)cc2)c2c3cc(-c4cnc5ccccc5c4)ccc3ncc21"
Result: 244
